B1: CPEB3 Ribozyme (parent)
chain: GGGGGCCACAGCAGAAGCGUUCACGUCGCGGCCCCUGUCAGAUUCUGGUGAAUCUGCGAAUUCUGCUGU

Variants of: B1
ASSAY DETAILS: self-cleavage, relative activity (ratio to wild type); higher = more cleavage; co-transcriptional
Would you please tag the item Criterion met when its self-cleavage is 0.2 or above, and Criterion not met when it is below?

These solved cases illustrate the format of a correct answer.
>>> class_label("G19A U61C")
"Criterion not met"
>>> class_label("C22A G47A")
"Criterion met"
>>> class_label("C18G U53A")
"Criterion not met"

Kindly review the next variant as well.
[in] // inclusive: self-cleavage at least 0.2? input: G1U U69G
[out] Criterion met
